// provenance: the Immune Epitope Database (IEDB)

Target: HLA-B*51:01
Test: IEDB peptide-MHC binding, purified MHC/competitive/radioactivity; filed as Kd, often an IC50 or EC50 that approximates it; bounds were set here for any values at or beyond the usual limits of such assays
Details: source organism: Dengue virus 3 Martinique/1243/1999
ENDPOINT_LABEL: pKd
# pKd = -log10(concentration in molar units)

MAEIPLQWI	5.46

Next sequence, pKd to be filled in.
Problem: # input sequence: "FETYQLWTAL" ; wanted: its pKd
Result: 5.72

###

Molecular target: HLA-A*02:03
Assay: IEDB peptide-MHC binding, purified MHC/competitive/radioactivity; filed as Kd, often an IC50 or EC50 that approximates it; bounds were set here for any values at or beyond the usual limits of such assays
Settings: source organism: Dengue virus 2 16681-PDK53
ENDPOINT_LABEL: Kd (nM)
Please state the figure in nM; there is no need to write the unit.

Problem: # input sequence: "ILAVVSVSPL" ; wanted: its Kd
Result: 39.5

###

Biological target: HLA-A*02:50
Test: IEDB peptide-MHC binding, purified MHC/competitive/fluorescence; filed as Kd, often an IC50 or EC50 that approximates it; bounds were set here for any values at or beyond the usual limits of such assays
Settings: source organism: Haemophilus influenzae R2846
ENDPOINT_LABEL: Kd (nM)
Please state the figure in nM; there is no need to write the unit.

Problem: Item: "FLADYRGKT" Test system: HLA-A*02:50 Read-out: Kd Value: ?
Result: 1.9

###

Target: HLA-B*08:02
Experiment: IEDB peptide-MHC binding, purified MHC/direct/fluorescence; filed as Kd, often an IC50 or EC50 that approximates it; bounds were set here for any values at or beyond the usual limits of such assays
Settings: source organism: Kurkino virus
ENDPOINT_LABEL: pKd
# pKd = -log10(concentration in molar units)

Problem: # input sequence: "YSKVKLLGL" ; wanted: its pKd
Result: 6.29

###

Kd overview
Biological target: HLA-A*30:01
Experiment: IEDB peptide-MHC binding, purified MHC/competitive/radioactivity; filed as Kd, often an IC50 or EC50 that approximates it; bounds were set here for any values at or beyond the usual limits of such assays
Conditions: source organism: Mammarenavirus guanaritoense
Please state the figure in µM; there is no need to write the unit.

TTDFTRLRY	1.93

Problem: # input sequence: "YSEESPTEY" ; wanted: its Kd
Result: 19.4

Problem: # input sequence: "SWDNTSVDLY" ; wanted: its Kd
Result: 9.33

###

Molecular target: HLA-B*40:01
Test: IEDB peptide-MHC binding, purified MHC/competitive/radioactivity; filed as Kd, often an IC50 or EC50 that approximates it; bounds were set here for any values at or beyond the usual limits of such assays
Details: source organism: Mammarenavirus whitewaterense
ENDPOINT_LABEL: Kd (µM)
Please state the figure in µM; there is no need to write the unit.

Problem: # input sequence: "AEQSRIFEEL" ; wanted: its Kd
Result: 10.2

###

Target: HLA-B*18:01
Assay: IEDB peptide-MHC binding, purified MHC/competitive/radioactivity; filed as Kd, often an IC50 or EC50 that approximates it; bounds were set here for any values at or beyond the usual limits of such assays
Details: source organism: Mammarenavirus whitewaterense
pKd: −log10 of the molar value.
ENDPOINT_LABEL: pKd

Problem: # input sequence: "AEQSRIFEEL" ; wanted: its pKd
Result: ≤ 4.68

###

Target: HLA-A*02:03
Assay: IEDB peptide-MHC binding, purified MHC/direct/fluorescence; filed as Kd, often an IC50 or EC50 that approximates it; bounds were set here for any values at or beyond the usual limits of such assays
Conditions: source organism: Brucella suis ATCC 23445
ENDPOINT_LABEL: pKd
# pKd = -log10(concentration in molar units)

Problem: # input sequence: "LSDDSGLMV" ; wanted: its pKd
Result: 6.38

###

Biological target: HLA-B*57:01
Experiment: IEDB peptide-MHC binding, purified MHC/direct/fluorescence; filed as Kd, often an IC50 or EC50 that approximates it; bounds were set here for any values at or beyond the usual limits of such assays
Conditions: source organism: Camelpox virus M-96
ENDPOINT_LABEL: Kd (nM)
Please state the figure in nM; there is no need to write the unit.

Problem: Item: "KLIEGTNIW" Test system: HLA-B*57:01 Read-out: Kd Value: ?
Result: 70.5

###

Target: HLA-A*30:02
Assay: IEDB peptide-MHC binding, purified MHC/competitive/radioactivity; filed as Kd, often an IC50 or EC50 that approximates it; bounds were set here for any values at or beyond the usual limits of such assays
Settings: source organism: Lymphocytic choriomeningitis virus (strain Armstrong)
ENDPOINT_LABEL: pKd
# pKd = -log10(concentration in molar units)

Problem: # input sequence: "LQFGFGWFSY" ; wanted: its pKd
Result: 8.30

###

pKd overview
Molecular target: HLA-A*68:01
Test: IEDB peptide-MHC binding, purified MHC/competitive/radioactivity; filed as Kd, often an IC50 or EC50 that approximates it; bounds were set here for any values at or beyond the usual limits of such assays
Details: source organism: Dengue virus 4 Philippines/H241/1956
# pKd = -log10(concentration in molar units)

ELTLDCEPR	6.64

Problem: Item: "WSYYMATLK" Test system: HLA-A*68:01 Read-out: pKd Value: ?
Result: 8.74

Problem: Item: "SALTLHWFR" Test system: HLA-A*68:01 Read-out: pKd Value: ?
Result: 8.63

Problem: Item: "DTTPFGQQR" Test system: HLA-A*68:01 Read-out: pKd Value: ?
Result: 7.04

###

Molecular target: HLA-A*11:01
Assay: IEDB peptide-MHC binding, purified MHC/direct/fluorescence; filed as Kd, often an IC50 or EC50 that approximates it; bounds were set here for any values at or beyond the usual limits of such assays
Settings: source organism: Giardia lamblia ATCC 50803
pKd: −log10 of the molar value.
ENDPOINT_LABEL: pKd

QTSTLYDFY	≤ 4.70
SDRLHHDPL	≤ 4.70

Next sequence, pKd to be filled in.
Problem: # input sequence: "WSFLEDRVY" ; wanted: its pKd
Result: ≤ 4.70

###

Target: HLA-B*15:02
Test: IEDB peptide-MHC binding, purified MHC/competitive/fluorescence; filed as Kd, often an IC50 or EC50 that approximates it; bounds were set here for any values at or beyond the usual limits of such assays
Conditions: source organism: Toxoplasma gondii RH
ENDPOINT_LABEL: pKd
# pKd = -log10(concentration in molar units)

Problem: # input sequence: "SLSSPDSAY" ; wanted: its pKd
Result: 7.60

###

Target: HLA-A*26:01
Test: IEDB peptide-MHC binding, purified MHC/direct/fluorescence; filed as Kd, often an IC50 or EC50 that approximates it; bounds were set here for any values at or beyond the usual limits of such assays
Conditions: source organism: Encephalitozoon cuniculi GB-M1
pKd: −log10 of the molar value.
ENDPOINT_LABEL: pKd

Problem: # input sequence: "MPFDPSELV" ; wanted: its pKd
Result: ≤ 4.70

###

Target: HLA-A*02:01
Test: IEDB peptide-MHC binding, purified MHC/competitive/fluorescence; filed as Kd, often an IC50 or EC50 that approximates it; bounds were set here for any values at or beyond the usual limits of such assays
Conditions: source organism: Entamoeba histolytica HM-1:IMSS
ENDPOINT_LABEL: Kd (nM)
Please state the figure in nM; there is no need to write the unit.

Problem: # input sequence: "YLHIHPFKI" ; wanted: its Kd
Result: 6.1

###

Molecular target: HLA-B*44:02
Experiment: IEDB peptide-MHC binding, purified MHC/competitive/radioactivity; filed as Kd, often an IC50 or EC50 that approximates it; bounds were set here for any values at or beyond the usual limits of such assays
Conditions: source organism: Dengue virus 3 Martinique/1243/1999
ENDPOINT_LABEL: Kd (nM)
Please state the figure in nM; there is no need to write the unit.

Problem: # input sequence: "MEIRPISEK" ; wanted: its Kd
Result: 1260

###

Target: HLA-B*58:01
Test: IEDB peptide-MHC binding, purified MHC/direct/fluorescence; filed as Kd, often an IC50 or EC50 that approximates it; bounds were set here for any values at or beyond the usual limits of such assays
Details: source organism: Influenza A virus (A/Hong Kong/507/97(H5N1))
pKd: −log10 of the molar value.
ENDPOINT_LABEL: pKd

Problem: Item: "LAKSVFNSL" Test system: HLA-B*58:01 Read-out: pKd Value: ?
Result: ≤ 4.70

###

Target: HLA-A*02:16
Assay: IEDB peptide-MHC binding, purified MHC/direct/fluorescence; filed as Kd, often an IC50 or EC50 that approximates it; bounds were set here for any values at or beyond the usual limits of such assays
Conditions: source organism: Rickettsia sibirica 246
ENDPOINT_LABEL: Kd

Problem: # input sequence: "APVESMALF" ; wanted: its Kd
Result: ≥ 20 µM
